Biological target: T1, kindlin-2 (KIND2) (UniProt Q8CIB5 1-680)
T1 chain: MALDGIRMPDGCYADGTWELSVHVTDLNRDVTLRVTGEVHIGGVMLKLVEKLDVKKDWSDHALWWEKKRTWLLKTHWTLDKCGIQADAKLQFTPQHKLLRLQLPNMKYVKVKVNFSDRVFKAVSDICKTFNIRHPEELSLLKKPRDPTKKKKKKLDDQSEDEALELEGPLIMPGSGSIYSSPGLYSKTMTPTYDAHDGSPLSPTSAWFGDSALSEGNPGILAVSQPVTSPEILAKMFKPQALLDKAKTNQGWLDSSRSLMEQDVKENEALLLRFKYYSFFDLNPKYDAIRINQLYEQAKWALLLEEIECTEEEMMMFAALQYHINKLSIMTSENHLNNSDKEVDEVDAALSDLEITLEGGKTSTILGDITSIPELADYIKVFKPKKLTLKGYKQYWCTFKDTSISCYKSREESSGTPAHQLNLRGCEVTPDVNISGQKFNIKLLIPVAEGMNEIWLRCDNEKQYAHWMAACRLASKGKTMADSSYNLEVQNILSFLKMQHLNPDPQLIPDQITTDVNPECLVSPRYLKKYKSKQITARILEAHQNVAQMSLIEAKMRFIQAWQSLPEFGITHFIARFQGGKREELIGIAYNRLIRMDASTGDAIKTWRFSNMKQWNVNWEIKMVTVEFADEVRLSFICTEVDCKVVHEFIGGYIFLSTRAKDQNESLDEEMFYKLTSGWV
Test: MST; apparent, with THD1
pKd: −log10 of the molar value. No end group written: not given here.

BINDER | pKd
{ATTO 488}-KLLMIIHDRREFAKFEKEKMNAKWDTGENPIYKSAVTTVVNPKYEGK [ATTO 488-labelled β1-CT (488–β1-CT)] | 4.38
